experiment: Wnt/beta-catenin pathway activators, primary screen, cell-based, plate reader, single point (AID 743398); settings: Wnt/beta-catenin reporter cell assay, activator, at 9.35 µM, active compounds read high;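 also: 0% = neutral control wells and 100% = positive control wells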
Out of some 300,000 compounds screened, about 3,600 (1.2%) were called active. For the sample, actives were picked, then their nearest neighbours and some compounds at random.

{"molecule": "CC1(C(=O)Nc2cccnc2)Cc2c(-c3ccccc3)ccnc2O1 (centres undefined)", "readoutUnits": "%", "activation": -1.45}
{"molecule": "CC1C(C)N(C(=O)CCl)c2ccccc2N1C(=O)CCl (centres undefined)", "readoutUnits": "%", "activation": -5.8}
{"molecule": "CCOc1ccc(/C(O)=C2\\C(=O)C(=O)N(c3ccc(OC)cc3)C2c2ccccc2[N+](=O)[O-])cc1 (centres undefined)", "readoutUnits": "%", "activation": 53.5}
{"molecule": "COCCNC(=S)N(C)[C@H]1C[C@H]2c3[nH]c4ccccc4c3CCN2C[C@H]1[C@H](C)O", "readoutUnits": "%", "activation": -0.111}
